B1: Ribonuclease, P00648 (parent)
chain: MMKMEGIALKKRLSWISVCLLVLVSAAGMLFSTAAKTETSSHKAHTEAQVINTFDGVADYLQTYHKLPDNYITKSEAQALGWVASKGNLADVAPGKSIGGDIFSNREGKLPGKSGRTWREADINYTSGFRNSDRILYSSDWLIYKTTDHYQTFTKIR

Variants of: B1
MEASUREMENT_SETUP: Bacillus amyloliquefaciens; pH 6.3; 25 °C; Urea; Fluorescence; MES-NaOH 450 mM; reversible: yes; structure 1BNI; whole UniProt chain shown

{"MUTATIONS": "D101A", "denaturant m value [kcal/mol/M]": 1.95}
{"MUTATIONS": "V92A", "denaturant m value [kcal/mol/M]": 2.08}
{"MUTATIONS": "E76G", "denaturant m value [kcal/mol/M]": 1.84}
{"MUTATIONS": "D101N", "denaturant m value [kcal/mol/M]": 2.11}
{"MUTATIONS": "I98A", "denaturant m value [kcal/mol/M]": 1.9}
{"MUTATIONS": "T73G", "denaturant m value [kcal/mol/M]": 2.03}
{"MUTATIONS": "K109R", "denaturant m value [kcal/mol/M]": 1.95}
{"MUTATIONS": "I98V", "denaturant m value [kcal/mol/M]": 2.11}
{"MUTATIONS": "T63S", "denaturant m value [kcal/mol/M]": 2.03}
{"MUTATIONS": "Y71F", "denaturant m value [kcal/mol/M]": 1.95}
{"MUTATIONS": "N105A", "denaturant m value [kcal/mol/M]": 1.97}
{"MUTATIONS": "I156V", "denaturant m value [kcal/mol/M]": 1.92}
{"MUTATIONS": "L61A", "denaturant m value [kcal/mol/M]": 1.87}
{"MUTATIONS": "N70A", "denaturant m value [kcal/mol/M]": 1.94}
{"MUTATIONS": "D59A R157A", "denaturant m value [kcal/mol/M]": 1.93}
{"MUTATIONS": "N131A", "denaturant m value [kcal/mol/M]": 2.04}
{"MUTATIONS": "D55A D59A R157A", "denaturant m value [kcal/mol/M]": 1.94}
{"MUTATIONS": "V57T", "denaturant m value [kcal/mol/M]": 2.07}
{"MUTATIONS": "N88D", "denaturant m value [kcal/mol/M]": 1.89}
{"MUTATIONS": "N124A", "denaturant m value [kcal/mol/M]": 1.98}
{"MUTATIONS": "I135V", "denaturant m value [kcal/mol/M]": 1.85}
{"MUTATIONS": "V92T", "denaturant m value [kcal/mol/M]": 1.99}
{"MUTATIONS": "V57A", "denaturant m value [kcal/mol/M]": 1.89}
{"MUTATIONS": "I135A", "denaturant m value [kcal/mol/M]": 1.94}
{"MUTATIONS": "Y60A", "denaturant m value [kcal/mol/M]": 2.03}
{"MUTATIONS": "D55A D59A", "denaturant m value [kcal/mol/M]": 1.78}
{"MUTATIONS": "Y64A", "denaturant m value [kcal/mol/M]": 2.02}
{"MUTATIONS": "S139A", "denaturant m value [kcal/mol/M]": 1.78}
{"MUTATIONS": "I102V", "denaturant m value [kcal/mol/M]": 1.85}
{"MUTATIONS": "T73A", "denaturant m value [kcal/mol/M]": 2}
{"MUTATIONS": "I143A", "denaturant m value [kcal/mol/M]": 1.96}
{"MUTATIONS": "N52A", "denaturant m value [kcal/mol/M]": 2}
{"MUTATIONS": "D55A", "denaturant m value [kcal/mol/M]": 1.94}
{"MUTATIONS": "I156A", "denaturant m value [kcal/mol/M]": 2.15}
{"MUTATIONS": "T63R", "denaturant m value [kcal/mol/M]": 1.99}
{"MUTATIONS": "I72A", "denaturant m value [kcal/mol/M]": 1.85}
{"MUTATIONS": "Y125F", "denaturant m value [kcal/mol/M]": 1.98}
{"MUTATIONS": "T146V", "denaturant m value [kcal/mol/M]": 1.84}
{"MUTATIONS": "L136V", "denaturant m value [kcal/mol/M]": 1.89}
{"MUTATIONS": "R157A", "denaturant m value [kcal/mol/M]": 2.03}
{"MUTATIONS": "Y60A Y64A", "denaturant m value [kcal/mol/M]": 2}
{"MUTATIONS": "I51A", "denaturant m value [kcal/mol/M]": 2.08}
{"MUTATIONS": "I123A", "denaturant m value [kcal/mol/M]": 1.99}
{"MUTATIONS": "K74G", "denaturant m value [kcal/mol/M]": 1.94}
{"MUTATIONS": "T53G", "denaturant m value [kcal/mol/M]": 2.08}
{"MUTATIONS": "N105D", "denaturant m value [kcal/mol/M]": 1.9}
{"MUTATIONS": "T53A", "denaturant m value [kcal/mol/M]": 1.97}
{"MUTATIONS": "D59A", "denaturant m value [kcal/mol/M]": 1.91}

Value source: FireProtDB (doi:10.1016/0022-2836(92)90562-x)
